- tested-target: T1, wild-type soluble E2 (sE2), HCV isolate H77C, residues 384-661 (UniProt P27958 384-661)
- T1 chain: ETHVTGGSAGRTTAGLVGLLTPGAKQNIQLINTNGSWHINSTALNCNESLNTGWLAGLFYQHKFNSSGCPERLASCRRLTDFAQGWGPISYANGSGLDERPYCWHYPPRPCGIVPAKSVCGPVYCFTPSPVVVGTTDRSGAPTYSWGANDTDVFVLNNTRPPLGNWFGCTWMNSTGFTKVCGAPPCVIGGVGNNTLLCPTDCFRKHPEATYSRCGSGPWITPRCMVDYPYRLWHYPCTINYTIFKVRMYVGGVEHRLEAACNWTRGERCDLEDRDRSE
- run-description: BLI
reported-property: Kd (nM)
Express your answer in nM, writing the number without its unit.

Req: Determine its reported Kd: CD81 large extracellular loop (LEL) (receptor) FVNKDQIAKDVKQFYDQALQQAVVDDDANNAKAVVKTFHETLDCCGSSTLTALTTSVLKNNLCPSGSNIISNLFKEDCHQKIDDLFSGK
Resp: 22
